Task for the reader: assign each of the following compounds its reported pIC50.
Target: Sodium-dependent serotonin transporter (Homo sapiens, UniProt P31645)
Sequence (P31645 whole entry): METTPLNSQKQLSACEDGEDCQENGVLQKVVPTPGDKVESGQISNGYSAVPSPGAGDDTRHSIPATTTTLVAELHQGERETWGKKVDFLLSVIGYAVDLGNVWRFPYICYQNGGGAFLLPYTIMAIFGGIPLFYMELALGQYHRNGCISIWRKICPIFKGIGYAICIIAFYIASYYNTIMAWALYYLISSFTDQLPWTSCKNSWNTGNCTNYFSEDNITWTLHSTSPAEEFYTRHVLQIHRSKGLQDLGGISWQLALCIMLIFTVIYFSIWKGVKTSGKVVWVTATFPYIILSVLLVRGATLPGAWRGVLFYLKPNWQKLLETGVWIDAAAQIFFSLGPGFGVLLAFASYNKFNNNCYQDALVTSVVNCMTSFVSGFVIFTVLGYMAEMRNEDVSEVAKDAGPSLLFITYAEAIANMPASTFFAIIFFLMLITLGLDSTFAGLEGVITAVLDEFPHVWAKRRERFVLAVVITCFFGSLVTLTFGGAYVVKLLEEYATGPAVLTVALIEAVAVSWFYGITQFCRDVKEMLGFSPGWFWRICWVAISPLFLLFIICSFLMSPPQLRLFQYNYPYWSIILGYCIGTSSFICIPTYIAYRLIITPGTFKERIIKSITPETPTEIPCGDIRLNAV
Assay type: cell-based, JAR
Description: Inhibition of 5-HT transporter-mediated [3H]5HT uptake in human Jar cells
One number for each entry, as −log10 of the molar value.

Solved cases below.
compound: CCCN(CCCc1c[nH]c2ccc(F)cc12)[C@H]1COc2cccc(C(N)=O)c2C1
pIC50: 6.84
--
compound: NC(=O)c1ccc(Cl)c2c1CC(N(CCCc1c[nH]c3ccc(F)cc13)C1CCC1)CO2 (single isomer, unassigned; (-))
pIC50: 7.21
--
compound: NC(=O)c1cccc2c1CC(N(CCCc1c[nH]c3ccc(F)cc13)C1CCC1)CO2 (single isomer, unassigned; (-))
pIC50: 6.96
--
compound: O=C(NC1CCCCC1)c1ccc(F)c2c1CC(N(CCCc1c[nH]c3ccc(F)cc13)C1CCC1)CO2 (centres undefined)
pIC50: 6.84
--
compound: O=C(NC1CC1)c1ccc(F)c2c1CC(N(CCCc1c[nH]c3ccc(F)cc13)C1CCC1)CO2 (centres undefined)
pIC50: 7.16

Report pIC50 for each item below.
1. CC(CCc1c[nH]c2ccc(F)cc12)N(CC1CC1)C1COc2c(F)ccc(C(N)=O)c2C1 (single isomer, unassigned; (+))
2. NC(=O)c1ccc(F)c2c1CC(N(CCCc1c[nH]c3c(F)cc(F)cc13)C1CCC1)CO2 (single isomer, unassigned; (-))
3. NC(=O)c1ccc(F)c2c1CC(N(CCCCn1ccc3c(F)cccc31)C1CCC1)CO2 (centres undefined)
4. CNC(=O)c1ccc(F)c2c1C[C@@H](N(CCCc1c[nH]c3ccc(F)cc13)C1CCC1)CO2

Reply:
[6.79, 7.15, 6.99, 6.83]
